biological target: Tau; assay: rat primary cortical neurons, FLIPR, 25 uM ASO
Bases are written 5' to 3'; sugars and linkages follow in the same order, as letters with counts (s phosphorothioate, o phosphodiester; PS: all linkages phosphorothioate). The collection does not say whether C is 5-methylated. l = locked nucleic acid (LNA); d = 2'-deoxy (DNA)
Metric: calcium oscillation score

>>> print(df.to_string())
                              sequence_chain             result
 0     GCATGATTGTGGGCT (sugars l3 d9 l3, PS)     0 % of control
 1  ATACTCAAATTCTTCCT (sugars l3 d10 l4, PS)  84.8 % of control
 2  AACAGGAGAGCCATTTCCCA (sugars l3 d14 l3, PS)  57.1 % of control
 3  CTCCTAATTTTGCACTC (sugars l3 d11 l3, PS)  46.7 % of control
 4   GTCGATGCTGCCGGTG (sugars l3 d10 l3, PS)     0 % of control
 5  CTTGAAGTCAAGCTTCTCAG (sugars l3 d14 l3, PS)  33.2 % of control
 6  CATTCCCTCCAGAACCATCA (sugars l3 d14 l3, PS)  34.2 % of control
 7    CAGTCTTTATTAACAC (sugars l4 d8 l4, PS)    54 % of control
 8   AACATCATGTCACACAC (sugars l4 d9 l4, PS)    39 % of control
 9      CTTGTGATGCAGGA (sugars l3 d8 l3, PS)  70.5 % of control
10    CTTACACATAGCTTCT (sugars l4 d8 l4, PS)  47.1 % of control
11  TAACTCAAATCAATTCTCAT (sugars l4 d12 l4, PS)  63.9 % of control
12      GATCTTAGGCTGGC (sugars l3 d8 l3, PS)   4.6 % of control
13      CCTAATCCTGTGCT (sugars l3 d8 l3, PS)  62.6 % of control
14    AATTAGTCACATACCA (sugars l4 d8 l4, PS)    85 % of control
15  ATTAATTATTAAATCTTCTC (sugars l4 d12 l4, PS)  72.6 % of control
16   CGTGGTCTGTCTTGGC (sugars l3 d10 l3, PS)    19 % of control
17   TGTACACGATCTCCGC (sugars l3 d10 l3, PS)   145 % of control

* * *

Below is a list of entries, each paired with its recorded calcium oscillation score value.
molecular target: STC1; assay: rat primary cortical neurons, FLIPR, 25 uM ASO
Bases are written 5' to 3'; sugars and linkages follow in the same order, as letters with counts (s phosphorothioate, o phosphodiester; PS: all linkages phosphorothioate). The collection does not say whether C is 5-methylated. l = locked nucleic acid (LNA); d = 2'-deoxy (DNA)
Metric: calcium oscillation score

>>> print(df.to_string())
                             sequence_chain  measurement_target             result
0  TATTTATATTCCACAGT (sugars l3 d10 l4, PS)                STC1   107 % of control
1  CTAATTATATATTTCCAC (sugars l4 d10 l4, PS)                STC1   119 % of control
2   TTACCCAAATACACACA (sugars l4 d9 l4, PS)                STC1   143 % of control
3   ATAGTTATTCCATTCC (sugars l4 d10 l2, PS)                STC1   105 % of control
4  TAGTTATTCCATTCCCA (sugars l2 d13 l2, PS)                STC1  99.3 % of control
5    CAACATTCAAGCCTTT (sugars l5 d7 l4, PS)                STC1  89.1 % of control
6  TTACAAGTCATTTCCCT (sugars l4 d11 l2, PS)                STC1  91.8 % of control
7    AACATTCAAGCCTTTC (sugars l3 d9 l4, PS)                STC1   109 % of control
8  TCAATATTATTCTTCTG (sugars l2 d11 l4, PS)                STC1  35.4 % of control
9  TTACCCAAATACACACAT (sugars l4 d10 l4, PS)                STC1   137 % of control

* * *

Below is a list of entries, each paired with its recorded calcium oscillation score value.
molecular target: Tau; assay: rat primary cortical neurons, FLIPR, 25 uM ASO
Bases are written 5' to 3'; sugars and linkages follow in the same order, as letters with counts (s phosphorothioate, o phosphodiester; PS: all linkages phosphorothioate). The collection does not say whether C is 5-methylated. l = locked nucleic acid (LNA); d = 2'-deoxy (DNA)
Metric: calcium oscillation score

>>> print(df.to_string())
                              sequence_chain              result
 0   AAGATGAAATTTGCTC (sugars l3 d10 l3, PS)  ≥ 200 % of control
 1  TTGCTTTTCCCAATTAT (sugars l4 d11 l2, PS)   54.5 % of control
 2  TATCTTATTGCTTTCCA (sugars l2 d12 l3, PS)     63 % of control
 3  AGTCTACCATGTCGATGCTG (sugars l3 d14 l3, PS)   71.2 % of control
 4   ACTGGTTAGCCCTAAA (sugars l3 d10 l3, PS)   3.83 % of control
 5  ACTGCTCAGCTAAGACCCTC (sugars l3 d14 l3, PS)   23.9 % of control
 6  TTATTAATTCATAAATGACT (sugars l3 d14 l3, PS)   42.3 % of control
 7  ACTTTATTTCCAAATTCACTTTTAC (sugars l4 d16 l2 d1 l2, PS)   29.5 % of control
 8  ACACTGTCCTTTAAACA (sugars l4 d10 l3, PS)   68.1 % of control
 9  TCAACATTACCCTTAAATAT (sugars l4 d13 l3, PS)   82.4 % of control
10  TCTCTCTTAACTTTATTTTA (sugars l3 d13 l4, PS)   80.8 % of control
11   TTAACCGAACTGCGAG (sugars l3 d10 l3, PS)   46.1 % of control

* * *

molecular target: Tau; assay: rat primary cortical neurons, FLIPR, 25 uM ASO
Bases are written 5' to 3'; sugars and linkages follow in the same order, as letters with counts (s phosphorothioate, o phosphodiester; PS: all linkages phosphorothioate). The collection does not say whether C is 5-methylated. l = locked nucleic acid (LNA); d = 2'-deoxy (DNA)
Below is a list of entries, each paired with its recorded calcium oscillation score value.
Metric: calcium oscillation score

>>> df
                              sequence_chain                     metric             result
 0  TTCCTAATTCCCAAATTCC (sugars l3 d14 l2, PS)  calcium oscillation score  62.1 % of control
 1   TCTACCATGTCGATGC (sugars l3 d10 l3, PS)  calcium oscillation score  51.8 % of control
 2  TCCTCTCCTTTAAGAAA (sugars l3 d12 l2, PS)  calcium oscillation score  79.1 % of control
 3  AGACCACATTTCCATCC (sugars l2 d13 l2, PS)  calcium oscillation score    72 % of control
 4  TTTCTCAATGTAACCTC (sugars l3 d10 l4, PS)  calcium oscillation score  71.6 % of control
 5   ATAGTCACTCTGGTGA (sugars l3 d10 l3, PS)  calcium oscillation score  85.7 % of control
 6  CTTTTCTACTCTACTCTCAA (sugars l4 d14 l2, PS)  calcium oscillation score  67.6 % of control
 7   CTTCATTCTTGCCCAA (sugars l3 d10 l3, PS)  calcium oscillation score  33.3 % of control
 8   TTACACCACACTGTCG (sugars l3 d10 l3, PS)  calcium oscillation score  32.1 % of control
 9  TCTACATTTTTGTCTCA (sugars l3 d11 l3, PS)  calcium oscillation score  47.1 % of control
10     TGTGATGCAGGAGTT (sugars l3 d9 l3, PS)  calcium oscillation score  70.5 % of control
11   ACCTCCTGGTTTATGA (sugars l3 d10 l3, PS)  calcium oscillation score  32.2 % of control
12  CACAAACCAACTCAACATTA (sugars l4 d13 l3, PS)  calcium oscillation score  82.7 % of control
13   CTTTGAGTTGAGGGAC (sugars l3 d10 l3, PS)  calcium oscillation score  29.1 % of control
14   CCTTTGAAAGTCCTTT (sugars l2 d12 l2, PS)  calcium oscillation score  96.4 % of control
15  CATCCTAAGTCAACCAC (sugars l3 d11 l3, PS)  calcium oscillation score  72.7 % of control
16     AATCCTGTGCTTCAG (sugars l3 d9 l3, PS)  calcium oscillation score  57.5 % of control
17   CGTGGGTGATATTGTC (sugars l3 d10 l3, PS)  calcium oscillation score     0 % of control
18   GTCCCGTCTTTGCTTT (sugars l3 d10 l3, PS)  calcium oscillation score  31.3 % of control
19   CACAACCCAAGATTCC (sugars l3 d10 l3, PS)  calcium oscillation score  58.8 % of control

These entries and their values trace back to the OligoGym collection.
